Tested on: NCI/ADR-RES ovarian
Assay: NCI tumour cell line growth inhibition, 48 h
For each entry below, report its TGI value.

// query Suppose we examine the compound O=c1oc2c([N+](=O)[O-])cc([N+](=O)[O-])cc2c2ccccc12 ; what TGI value has been reported?
// result > 100 µM

// query Consider the compound shown here: COc1ccc(C2NC(=O)c3cc4c(cc3N2)OCO4)cc1 (centres undefined) What is its recorded TGI?
// result 3.86 µM

// query Please look up its TGI: N#Cc1c(=N)cc2c3ccccc3oc3c(C#N)c(N)[nH]c1c32
// result > 100 µM

// query Which measured TGI value corresponds to CCC1c2[nH]c3ccccc3c2C[C@H]2C(=O)NC(Cc3c[nH]c4ccccc34)C(=O)N12 (some centres undefined) ?
// result 76.6 µM

// query For the compound CCCCCCCC/C(=C\C1=C(C)C(=O)C(OC)=C(OC)C1=O)C(=O)O , what TGI is on record?
// result 97.5 µM

// query Name the recorded TGI for COc1cc(C(=O)O[C@H]2CCC3CCC2N3C)cc(OC)c1OC (some centres undefined) .
// result > 100 µM

// query Given the entry CC(=O)OCc1cc(=O)n2c([nH]c3ccccc32)c1C#N , report its measured TGI.
// result > 100 µM

// query Could you tell me which TGI is on file for COC(=O)C(C)NP(=O)(OCc1ccc(Cn2cnc3c(N)ncnc32)cc1)Oc1ccccc1 (centres undefined) ?
// result > 100 µM

// query Item CC(C)NC1(C(N)=O)CCN(Cc2ccccc2)CC1 has what recorded TGI?
// result > 100 µM

// query Param item = O=[N+]([O-])/C(C(Cl)=C(Cl)Cl)=C(\Nc1cccc2ccccc12)n1nnc2ccccc21 ; retrieve measured TGI.
// result > 100 µM

// query Return reported TGI; argument: COc1cc(C2c3cc4c(cc3[C@@H](Nc3ccc(F)cc3)C3CO[C@@H](O)[C@H]23)OCO4)cc(OC)c1O (some centres undefined)
// result > 25 µM

// query What value of TGI has been recorded for this entry: CC1(C)OCC(C2OC(OC(=O)c3ccc(C(F)(F)F)cc3)C3OC(C)(C)OC23)O1 (centres undefined)
// result > 77.5 µM

// query Quick check: TGI of CC(CO)CCNc1ncnc2c1ncn2CCC(=O)O (centres undefined) ?
// result > 100 µM

// query Which TGI value is on record for Cc1ccc(I)cc1N=C=S ?
// result 63.3 µM

// query For O=C(O)CCC1(C(=O)O)CCC(=O)c2ccccc21 (centres undefined) , what is its reported TGI?
// result > 100 µM

// query Name the recorded TGI for COc1ccc(NC(=S)N/N=C(\c2ccccc2)c2ccccn2)cc1 .
// result 23.8 µM

// query I am curious: what TGI value has been reported for COC(=O)Nc1nc2ccc(NS(=O)(=O)c3ccc(Cl)cc3)cc2[nH]1 ?
// result 47.7 µM

// query # input compound: C#CC#CC#CC#CC#CC#CC#CC#CC[C@@H]1OC[C@H](COC(=O)O[C@@H](C(=O)O[C@H]2C[C@@]3(O)[C@@H](OC(=O)c4ccccc4)[C@@H]4[C@]5(OC(C)=O)CO[C@@H]5C[C@H](O)[C@@]4(C)C(=O)[C@H](OC(C)=O)C(=C2C)C3(C)C)[C@@H](NC(=O)c2ccccc2)c2ccccc2)O1 ; wanted: its TGI
// result > 25 µM

// query Dear colleague, I am looking for the recorded TGI of the following compound: NS(=O)(=O)c1ccc(N=Nc2c(O)[nH]c3ccc(Cl)cc23)cc1
// result > 25 µM

---

Test system: SK-MEL-2 melanoma
Experiment: NCI tumour cell line growth inhibition, 48 h
Where a SMILES comes first, the peptide text is derived from it.
Please provide measured GI50 for the entries that follow.

// query Given the entry CCC(C)C1NC(=O)C(CCCCN)NC(=O)C(CCCCN)NC(=O)C(CC(C)C)NC(=O)C(CCCCN)NC(=O)C(C(C)CC)NC(=O)C(C(C)C)NC(=O)C(C(C)CC)NC(=O)C(CCCCN)NC(=O)C(CCCCN)NC(=O)C(C)NC(=O)C(CCCCN)NC(=O)C(CC(C)C)NC1=O (stereo not drawn) (cyclo(AKKIVIKLKKILK); configuration not given here) , report its measured GI50.
// result 2060 nM

// query May I ask what GI50 has been recorded for CC[N-]c1nnnn1CC.[Au+].c1ccc([PH+](c2ccccc2)c2ccccc2)cc1 ?
// result 1140 nM

// query Look at this compound and give its reported GI50. O=C([CH-]C(=O)C(F)(F)F)c1ccccc1.O=C([CH-]C(=O)C(F)(F)F)c1ccccc1.[O]=[U+2]=[O]
// result 28000 nM

---

Record form. Attribute: TGI. Fill in for each entry.
Tested on: KM12 colon
Assay: NCI tumour cell line growth inhibition, 48 h

// query Record COc1ccc2nc3c(n2c1)C(=O)C(=O)c1ccccc1-3 : what is its TGI with KM12 colon?
// result 5.04 µM

// query Reported TGI for KM12 colon, given CCCCCCC(O)(c1ccc(F)cc1)C(CN1CCOCC1)c1ccccc1 (configuration not stated) ?
// result 28.4 µM

// query Give recorded TGI with KM12 colon for the following compound: O=C(O)C(CO)N=Cc1nc(-c2ccccc2)oc1O (configuration not stated)
// result > 100 µM

// query Reported TGI for KM12 colon, given CCCCCCCCn1ccc2cc(NC(=O)Cn3cc(CN4CCN(CC)CC4)nn3)ccc21 ?
// result 4.74 µM

// query Value wanted: TGI (KM12 colon) of entry CN1CCC(CN2c3ccccc3Sc3ccccc32)C1 (configuration not stated)
// result 34.5 µM

// query Query for KM12 colon: what TGI does the record show for CCCCNC(=O)OCCN=C1c2ccccc2C(Br)C(Br)c2ccccc21 (configuration not stated) ?
// result > 100 µM

// query State its TGI on KM12 colon: O=C1OC(Cl)C(N=P(c2ccccc2)(c2ccccc2)c2ccccc2)=C1Cl (configuration not stated)
// result > 100 µM

// query Please state recorded TGI (tested on KM12 colon) of COc1ccc(CNc2cnc3ccc(N)cc3n2)cc1OC
// result > 100 µM

// query For the record CCOC(=O)c1cc(C)n(CN(CCO)Cn2nc(C(=O)OCC)cc2C)n1 , what value of TGI is listed for KM12 colon?
// result > 100 µM

// query Given the entry CCOC(=O)CC1C(O)C(=O)N(C)C1c1ccccc1 (configuration not stated) , what TGI was observed with KM12 colon?
// result > 100 µM

// query Under KM12 colon: TGI value of C/C(=N\Nc1nc2ccccc2o1)c1ccc2ccccc2n1 ?
// result > 100 µM

// query Find the measured TGI: item COc1cc2nccc(Oc3ccc(NC(=O)C4(C(=O)Nc5ccc(F)cc5)CC4)cc3)c2cc1OC(=O)c1ccc(N)cc1 , target or system KM12 colon.
// result > 100 µM

// query For the record COc1ccc(/C=C(/C(=O)N2CCCCC2)c2cc(OC)c(OC)c(OC)c2)cc1 , what value of TGI is listed for KM12 colon?
// result > 100 µM

// query Form field: TGI recorded for CC[C@@]1(C[C@H]2C[C@@]3(C(=O)OC)c4[nH]c5ccccc5c4CCN3C2=S)COC2(CCCCC2)O1 with KM12 colon (enter value)
// result 67.8 µM

// query Write down the reported TGI of N#CC(NCCc1ccccc1)c1ccc(C(C#N)NCCc2ccccc2)cc1 (configuration not stated) , test system: KM12 colon.
// result > 100 µM

// query What reported TGI corresponds to COc1ccc(NC(=S)N/N=C(\c2ccccc2)c2ccccn2)cc1 on KM12 colon?
// result 15.9 µM

// query Under KM12 colon: TGI value of CN(C)c1nc2n(CCO)ccnc-2c(=O)n1 ?
// result > 100 µM

// query // map Cc1ccc(S(=O)(=O)NC2CCCCO2)cc1 (configuration not stated) to recorded TGI (system: KM12 colon)
// result > 100 µM

// query // lookup TGI | system=KM12 colon | key= COc1ccc(CCc2nc3cc(-c4c(C)noc4C)ccc3n2CCN2CCOCC2)cc1
// result > 100 µM

// query Lab request: please report TGI under test system KM12 colon for [N-]=[N+]=Nc1cccc(-c2n[nH]c(Cl)cc2=O)c1
// result > 100 µM

// query # returns recorded TGI (system: KM12 colon) for NC(N)=NCCN1CCCCCc2ccccc21
// result > 10 µM

// query Which measured TGI belongs to COC(=O)C(C)NP(=O)(OCc1ccc(Cn2cnc3c(N)ncnc32)cc1)Oc1ccccc1 (configuration not stated) , tested on KM12 colon?
// result > 96.1 µM

---

Would you mind telling me the reported TGI of each entry?
Test system: LOX IMVI melanoma
Test: NCI tumour cell line growth inhibition, 48 h

// query Any idea what its TGI is? The compound is N#CC(C(=O)C(N)=O)c1ccccc1Cl (stereo not given)
// result > 100 µM

// query Item N#CNC(=NCc1ccccc1)NCc1ccccc1 has what recorded TGI?
// result > 100 µM

// query Quick check: TGI of CCOC(=O)CC1C(O)C(=O)N(C)C1c1ccccc1 (stereo not given) ?
// result > 100 µM

// query Request the reported TGI associated with COc1cc2c(cc1OCCCCCN1CCN(CCCCCOc3cc4c(cc3OC)C(=O)C3CCC[C@H]3C=N4)CC1)N=C[C@@H]1CCCC1C2=O (stereo not given in full)
// result > 100 µM

// query Name the recorded TGI for O=C([CH-]C(=O)C(F)(F)F)c1ccccc1.O=C([CH-]C(=O)C(F)(F)F)c1ccccc1.[O]=[U+2]=[O] .
// result > 100 µM

// query Param item = CC(C)C(NCc1c2ccccc2[n+]([O-])c2ccccc12)C(=O)O (stereo not given) ; retrieve measured TGI.
// result > 100 µM

// query Please give the measured TGI for this compound: COc1ccc2c(c1)C(=O)C1(C2)[C@H](c2ccccc2)C2C(=O)c3cc(OC)ccc3C2[C@H]1c1ccccc1 (stereo not given in full)
// result > 100 µM

// query Quick check: TGI of NC(N)=N/N=C(\c1ccc(F)cc1)c1ccc(C(F)(F)F)cc1 ?
// result 1.64 µM

// query TGI for COC(=O)C1(CCC(=O)N(C)c2ccccc2)NNC2C(=O)N(c3ccccc3)C(=O)C21 (stereo not given) ?
// result > 10 µM

// query Value lookup for TGI; key = c1ccc(N=C(N2CCCCC2)N(CCN2CCCCC2)c2ccccc2)cc1
// result 2.39 µM
